testName: Hematology assays in cynomolgus monkeys (Example 45)
Type: in vivo
cond: day 22
parameter: platelet count (µL⁻¹)
Quick note: give the figure in µL⁻¹, leave out the unit.

Here's what some known entries look like.
1. ISIS 416850: MOE gapmer, nucleobases 1275 to 1318 of SEQ ID NO: 1 (Table 8) (antisense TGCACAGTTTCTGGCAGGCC; MOE gapmer, wing and gap sizes not given here) | 466000
2. ISIS 416858: MOE gapmer, nucleobases 1275 to 1318 of SEQ ID NO: 1 (Table 8) (antisense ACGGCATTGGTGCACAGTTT; MOE gapmer, wing and gap sizes not given here) | 316000
3. ISIS 417002: MOE gapmer, nucleobases 1275 to 1318 of SEQ ID NO: 1 (Table 8) (antisense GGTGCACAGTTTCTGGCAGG; MOE gapmer, wing and gap sizes not given here) | 377000
4. ISIS 416838: MOE gapmer, nucleobases 1018 to 1042 of SEQ ID NO: 1 (Table 6) (antisense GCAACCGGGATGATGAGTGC; MOE gapmer, wing and gap sizes not given here) | 319000

query: Bench note: what platelet count did ISIS 416864: MOE gapmer, nucleobases 1275 to 1318 of SEQ ID NO: 1 (Table 8) (antisense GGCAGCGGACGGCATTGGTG; MOE gapmer, wing and gap sizes not given here) show?
result: 364000
